Where do these numbers come from? They come from the supplement of paper PMC4723716.

Test system: Plasmodium falciparum NF54 stage V gametocytes
ASSAY OVERVIEW: viability index relative to DMSO control (fraction); higher = less gametocyte killing
CONDITION: 1.25 µM, incubation time: 72 h
In all, about 3,600 compounds were measured (“viability index relative to DMSO control”: median about 0.81, lowest 2% from about 0.13 on). Shown is part of a subset that was picked to be rich in the lowest values.
ENDPOINT: viability index
Answer as a number with no unit attached.

Here's what some known entries look like.
O=C1C(Nc2ccc(O)cc2)=CC(=NS(=O)(=O)c2cccs2)c2ccccc21 : 0.306
CCOC(=O)c1oc2cc(O)c(CC)cc2c(=O)c1-c1ccc2c(c1)OCO2 : 1.09
CCOC(=O)C1CCCN(C(=O)c2c(C)oc3c2C(=O)c2ccccc2C3=O)C1 (stereo unspecified) : 0.726

Request the reported viability index associated with "COC(OC)C(C)=NNC(N)=S"
0.112

Request the reported viability index associated with "COc1cnc(-c2ccccn2)nc1NC(C)C"
0.0307

---

System: Plasmodium falciparum NF54 stage V gametocytes
ASSAY OVERVIEW: viability index relative to DMSO control (fraction); higher = less gametocyte killing
CONDITION: 1.25 µM, incubation time: 72 h
In all, about 3,600 compounds were measured (“viability index relative to DMSO control”: median about 0.81, lowest 2% from about 0.13 on). This excerpt belongs to a sample that is enriched for the lowest values.
API: label(entry) gives TRUE if the entry's viability index is strictly smaller than 0.8; on equality or larger values it gives FALSE.

Sample answers from the record:
O=[N+]([O-])c1ccc2nc(Nc3ccc(Cl)c(Cl)c3)c(Nc3ccc(Cl)c(Cl)c3)nc2c1 : TRUE
O=[N+]([O-])c1ccc2nc(NC3CCCCC3)c(NC3CCCCC3)nc2c1 : FALSE
CCN(CC)CCNc1ccc(Nc2ccnc3cc4ccccc4cc23)cc1 : TRUE
Oc1ccc(-c2cncnc2)cc1CNC1CCN(Cc2ccccc2)CC1 : FALSE
Cc1cc(C)nc(Nc2nc(C)c3cc(C)c(C)cc3n2)n1 : TRUE

Does this compound meet the criterion viability index < 0.8? "CCn1c(C=CN(C)c2ccccc2)[n+](CC)c2cc(Cl)ccc21"
FALSE

Does this compound meet the criterion viability index < 0.8? "Cc1ccc(N2C(N)=NC(N)=NC2(C)C)cc1"
FALSE

---

Catalogue of compounds with associated viability index
Tested on: Plasmodium falciparum NF54 stage V gametocytes;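 also: Saponin-lysis sexual stage assay in serum-free medium: MitoTracker Red CMXRos staining plus saponin, high-content imaging, particle count per well divided by plate mean of DMSO wells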
ASSAY OVERVIEW: viability index relative to DMSO control (fraction); higher = less gametocyte killing
CONDITION: 1.25 µM, incubation time: 72 h
The full ranking holds about 3,600 compounds; the median of “viability index relative to DMSO control” is about 0.81, and the lowest 2% start at about 0.13. Many of the other results were omitted from the sample, so the lowest values are more common in it than they were.
Answer as a number with no unit attached.

Here's what some known entries look like.
COc1ccc2[nH]c(SCC(=O)Nc3cccc(NC(=O)CSc4nc5cc(OC)ccc5[nH]4)n3)nc2c1 : 0.353
Cc1cc(C)n(-c2ccc(NC(=O)C3CCN(Cc4cc(C)c(C)o4)CC3)cc2)n1 : 0.926
O=C(Nc1ccc(-c2nc3ccccc3[nH]2)cc1)c1ccc(-c2ccc(Cl)cc2)o1 : 0.725
Oc1c(CN2CCN(Cc3ccc4cccnc4c3O)CC2)ccc2cccnc12 : 0.601

Request the reported viability index associated with O=C(CC1OC(=O)c2ccccc21)c1ccc(Cl)cc1 (stereo unspecified)
0.496

Request the reported viability index associated with "Cc1ccc(C=Cc2ccc3ccccc3[n+]2C)cc1"
0.754

Request the reported viability index associated with "CC(=O)Nc1ccc(-c2nc3c4ccccc4c4ccc(I)cc4c3[nH]2)cc1"
0.762

Request the reported viability index associated with CCCN(CCC)CC(O)COc1ccccc1C(=O)Nc1ccccc1 (stereo unspecified)
0.65

Request the reported viability index associated with "CCN1C(=Cc2sc3ccccc3[n+]2C)C=Cc2ccc(C)cc21"
0.51

Request the reported viability index associated with CCOC(=O)c1ccc(N(C(=O)Cc2c[nH]c3ccccc23)C(C(=O)NC2CCCCC2)c2cccnc2)cc1 (stereo unspecified)
0.513

Request the reported viability index associated with "COc1cccc(OC)c1C(=O)Oc1cccc2ccc(C)nc12"
0.706
